Target: Sodium-dependent noradrenaline transporter (Homo sapiens, UniProt P23975); note: assay procedure not described here
Sequence (P23975 whole entry): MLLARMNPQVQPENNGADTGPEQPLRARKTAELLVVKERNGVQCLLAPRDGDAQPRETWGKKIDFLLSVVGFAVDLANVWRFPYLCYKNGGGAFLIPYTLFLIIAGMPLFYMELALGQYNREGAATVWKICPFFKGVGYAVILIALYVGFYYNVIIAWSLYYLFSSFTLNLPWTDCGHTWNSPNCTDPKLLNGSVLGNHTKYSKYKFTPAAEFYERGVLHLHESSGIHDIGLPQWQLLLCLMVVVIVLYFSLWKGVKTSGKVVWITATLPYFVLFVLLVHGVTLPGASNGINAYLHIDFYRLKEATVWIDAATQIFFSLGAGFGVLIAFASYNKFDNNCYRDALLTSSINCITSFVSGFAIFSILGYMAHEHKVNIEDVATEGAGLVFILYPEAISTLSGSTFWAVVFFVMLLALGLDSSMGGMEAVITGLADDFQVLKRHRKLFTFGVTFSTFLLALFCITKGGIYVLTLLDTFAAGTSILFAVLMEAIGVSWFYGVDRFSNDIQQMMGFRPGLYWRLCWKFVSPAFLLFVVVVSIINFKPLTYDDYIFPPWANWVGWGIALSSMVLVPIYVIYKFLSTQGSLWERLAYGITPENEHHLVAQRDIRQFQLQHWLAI
Documented AC50 across a set of compounds
outcomeMeasure: AC50

compound: COC(=O)C1=C(C)NC(C)=C(C(=O)OC(C)(C)CN(C)CCC(c2ccccc2)c2ccccc2)C1c1cccc([N+](=O)[O-])c1 (centres undefined) [LERCANIDIPINE]
testSystem: Sodium-dependent noradrenaline transporter (Homo sapiens, UniProt P23975); note: assay procedure not described here
measured: > 30 µM
--
compound: C=CCC1(C(C)CC)C(=O)NC(=O)NC1=O (centres undefined) [TALBUTAL]
testSystem: Sodium-dependent noradrenaline transporter (Homo sapiens, UniProt P23975); note: assay procedure not described here
measured: > 10 µM
--
compound: O=C(OCC(O)CO)c1ccccc1Nc1ccnc2cc(Cl)ccc12 (centres undefined) [GLAFENINE]
testSystem: Sodium-dependent noradrenaline transporter (Homo sapiens, UniProt P23975); note: assay procedure not described here
measured: > 30 µM
--
compound: CC(C)(C)NCC(O)COc1cccc2c1CCC(=O)N2 (centres undefined) [CARTEOLOL]
testSystem: Sodium-dependent noradrenaline transporter (Homo sapiens, UniProt P23975); note: assay procedure not described here
measured: > 10 µM
--
compound: CN1C(=O)CCS(=O)(=O)C1c1ccc(Cl)cc1 (centres undefined) [CHLORMEZANONE]
testSystem: Sodium-dependent noradrenaline transporter (Homo sapiens, UniProt P23975); note: assay procedure not described here
measured: > 10 µM
--
compound: NC(=O)CN1CC(O)CC1=O (centres undefined) [OXIRACETAM]
testSystem: Sodium-dependent noradrenaline transporter (Homo sapiens, UniProt P23975); note: assay procedure not described here
measured: > 30 µM
--
compound: O=C(O)C1=C(CSc2nnnn2CS(=O)(=O)O)CS[C@@H]2[C@H](NC(=O)[C@H](O)c3ccccc3)C(=O)N12 [CEFONICID]
testSystem: Sodium-dependent noradrenaline transporter (Homo sapiens, UniProt P23975); note: assay procedure not described here
measured: > 30 µM
--
compound: Clc1ccc(C(c2ccccc2Cl)C(Cl)Cl)cc1 (centres undefined) [MITOTANE]
testSystem: Sodium-dependent noradrenaline transporter (Homo sapiens, UniProt P23975); note: assay procedure not described here
measured: > 10 µM
--
compound: Clc1ccccc1C(c1ccccc1)(c1ccccc1)n1ccnc1 [CLOTRIMAZOLE]
testSystem: Sodium-dependent noradrenaline transporter (Homo sapiens, UniProt P23975); note: assay procedure not described here
measured: 19.9 µM
